molecular target: MCH receptor (Homo sapiens, UniProt Q99705); experiment: High throughput functional screening FLIPR/FDSS6000 (intracellular Ca2+ evoked by MCH); format: cell-based; details: FLIPR/FDSS, antagonist activity vs 50 nM MCH; class by percent of control at 10^−7 M or IC50; table after the classification; read-out: class
pIC50: −log10 of the molar value. Structures can show the parent of a compound that is named as a salt.
result_type: pIC50

Cc1cc(N[C@H]2CC[C@@H](NC(=O)c3ccc(F)c(Cl)c3)CC2)nc2ccccc12 [Example 3239]
> 7.30
Cc1cc(N[C@H]2CC[C@@H](NC(=O)c3cccc(Br)c3)CC2)nc2ccccc12 [Example 3086, hydrochloride]
> 7.30
CCN(CC(=O)N[C@H]1CC[C@@H](Nc2ccc3ccccc3n2)CC1)c1ccccc1 [Example 3151, dihydrochloride]
> 7.30
Cc1cc(N[C@H]2CC[C@@H](NC(=O)c3ccccc3F)CC2)nc2ccccc12 [Example 3171, hydrochloride]
6.70 to 7.30
CN(C)c1cc(N(C)C)nc(N[C@H]2CC[C@@H](NC(=O)c3ccc(F)c(F)c3)CC2)n1 [Example 3232, hydrochloride]
6.70 to 7.30
CN(C)c1cc(N[C@H]2CC[C@@H](NCc3ccc(Br)cc3OC(F)(F)F)CC2)nc2ccccc12 [Example 5, dihydrochloride]
6.70 to 7.30
Cc1cc(N[C@H]2CC[C@@H](NC(=O)c3cc(Cl)ccn3)CC2)nc2ccccc12 [Example 3184, hydrochloride]
6.70 to 7.30
